# System: Candida parapsilosis
# assayInfo: Antifungal activity against Candida parapsilosis by broth microdilution method
# Format: functional
# experimentalParameters: Lodderomyces parapsilosis
readoutType: MIC90 (µg/mL)
Supply the numeric figure in µg/mL, leaving out any unit text.

| compound | MIC90, µg/mL |
| --- | --- |
| CON=C1C2C(c3ccccc3C)NC(c3ccccc3C)C1C(c1ccccc1C)NC2c1ccccc1C (stereo not drawn) | 8 |
| CCOc1ccccc1C1NC(c2ccccc2OCC)C2C(=NOC)C1C(c1ccccc1OCC)NC2c1ccccc1OCC (stereo not drawn) | 64 |
| COc1ccccc1C1NC(c2ccccc2OC)C2C(=NO)C1C(c1ccccc1OC)NC2c1ccccc1OC (stereo not drawn) | 32 |
| CON=C1C2C(c3ccc(C(C)C)cc3)NC(c3ccc(C(C)C)cc3)C1C(c1ccc(C(C)C)cc1)NC2c1ccc(C(C)C)cc1 (stereo not drawn) | 8 |

# next compound below
# get_value(readout= MIC90, system= Candida parapsilosis) for CON=C1C2C(c3ccccc3F)NC(c3ccccc3F)C1C(c1ccccc1F)NC2c1ccccc1F (stereo not drawn)
64

----------
// MIC90 lookup, one value per entry
# Test system: Aspergillus niger
# assayInfo: Antifungal activity against Aspergillus niger by broth microdilution method
# Format: functional
Supply the numeric figure in µg/mL, leaving out any unit text.

Below: 2 compounds and their reported MIC90.
| compound | unitOfMeasure | MIC90 |
| --- | --- | --- |
| Cc1ccccc1C1NC(c2ccccc2C)C2C(=NO)C1C(c1ccccc1C)NC2c1ccccc1C (stereo not drawn) | µg/mL | 64 |
| CON=C1C2C(c3cccc(Oc4ccccc4)c3)NC(c3cccc(Oc4ccccc4)c3)C1C(c1cccc(Oc3ccccc3)c1)NC2c1cccc(Oc2ccccc2)c1 (stereo not drawn) | µg/mL | 128 |

Which value of MIC90 has been reported for CON=C1C2C(c3cccc(F)c3)NC(c3cccc(F)c3)C1C(c1cccc(F)c1)NC2c1cccc(F)c1 (stereo not drawn) in the records?
16

Which value of MIC90 has been reported for COc1ccc(C2NC(c3ccc(OC)cc3)C3C(=NO)C2C(c2ccc(OC)cc2)NC3c2ccc(OC)cc2)cc1 (stereo not drawn) in the records?
16

Which value of MIC90 has been reported for OC(Cn1cncn1)(Cn1cncn1)c1ccc(F)cc1F in the records?
4

Which value of MIC90 has been reported for CON=C1C2C(c3ccccc3C)NC(c3ccccc3C)C1C(c1ccccc1C)NC2c1ccccc1C (stereo not drawn) in the records?
64

----------
// MIC90 lookup, one value per entry
# Test system: Candida parapsilosis
# assayInfo: Antifungal activity against Candida parapsilosis by broth microdilution method
# Format: functional
# experimentalParameters: Lodderomyces parapsilosis

Below: 2 compounds and their reported MIC90.
| compound | readoutType | measurement |
| --- | --- | --- |
| CON=C1C2C(c3ccc(F)cc3)NC(c3ccc(F)cc3)C1C(c1ccc(F)cc1)NC2c1ccc(F)cc1 (configuration not stated) | MIC90 | > 128 µg/mL |
| CCCCOc1ccc(C2NC(c3ccc(OCCCC)cc3)C3C(=NOC)C2C(c2ccc(OCCCC)cc2)NC3c2ccc(OCCCC)cc2)cc1 (configuration not stated) | MIC90 | > 128 µg/mL |

Which value of MIC90 has been reported for CON=C1C2C(c3ccc(SC)cc3)NC(c3ccc(SC)cc3)C1C(c1ccc(SC)cc1)NC2c1ccc(SC)cc1 (configuration not stated) in the records?
16 µg/mL

Which value of MIC90 has been reported for CON=C1C2C(c3ccccc3Cl)NC(c3ccccc3Cl)C1C(c1ccccc1Cl)NC2c1ccccc1Cl (configuration not stated) in the records?
> 128 µg/mL

Which value of MIC90 has been reported for ON=C1C2C(c3ccccc3Cl)NC(c3ccccc3Cl)C1C(c1ccccc1Cl)NC2c1ccccc1Cl (configuration not stated) in the records?
> 128 µg/mL

Which value of MIC90 has been reported for Cc1ccccc1C1NC(c2ccccc2C)C2C(=NO)C1C(c1ccccc1C)NC2c1ccccc1C (configuration not stated) in the records?
8 µg/mL

Which value of MIC90 has been reported for CCc1ccc(C2NC(c3ccc(CC)cc3)C3C(=NOC)C2C(c2ccc(CC)cc2)NC3c2ccc(CC)cc2)cc1 (configuration not stated) in the records?
32 µg/mL

Which value of MIC90 has been reported for ON=C1C2C(c3cccc(F)c3)NC(c3cccc(F)c3)C1C(c1cccc(F)c1)NC2c1cccc(F)c1 (configuration not stated) in the records?
> 128 µg/mL

Which value of MIC90 has been reported for COc1cccc(C2NC(c3cccc(OC)c3)C3C(=NO)C2C(c2cccc(OC)c2)NC3c2cccc(OC)c2)c1 (configuration not stated) in the records?
> 128 µg/mL

Which value of MIC90 has been reported for CCCOc1ccc(C2NC(c3ccc(OCCC)cc3)C3C(=NO)C2C(c2ccc(OCCC)cc2)NC3c2ccc(OCCC)cc2)cc1 (configuration not stated) in the records?
> 128 µg/mL

Which value of MIC90 has been reported for C=CCOc1ccc(C2NC(c3ccc(OCC=C)cc3)C3C(=NOC)C2C(c2ccc(OCC=C)cc2)NC3c2ccc(OCC=C)cc2)cc1 (configuration not stated) in the records?
32 µg/mL

Which value of MIC90 has been reported for CON=C1C2C(c3cccc(Oc4ccccc4)c3)NC(c3cccc(Oc4ccccc4)c3)C1C(c1cccc(Oc3ccccc3)c1)NC2c1cccc(Oc2ccccc2)c1 (configuration not stated) in the records?
128 µg/mL

Which value of MIC90 has been reported for CON=C1C2C(c3cccc(Br)c3)NC(c3cccc(Br)c3)C1C(c1cccc(Br)c1)NC2c1cccc(Br)c1 (configuration not stated) in the records?
> 128 µg/mL

Which value of MIC90 has been reported for ON=C1C2C(c3ccc(F)cc3)NC(c3ccc(F)cc3)C1C(c1ccc(F)cc1)NC2c1ccc(F)cc1 (configuration not stated) in the records?
> 128 µg/mL

Which value of MIC90 has been reported for CON=C1C2C(c3ccccc3)NC(c3ccccc3)C1C(c1ccccc1)NC2c1ccccc1 (configuration not stated) in the records?
> 128 µg/mL

Which value of MIC90 has been reported for ON=C1C2C(c3ccccc3)NC(c3ccccc3)C1C(c1ccccc1)NC2c1ccccc1 (configuration not stated) in the records?
> 128 µg/mL

Which value of MIC90 has been reported for ON=C1C2C(c3ccccc3F)NC(c3ccccc3F)C1C(c1ccccc1F)NC2c1ccccc1F (configuration not stated) in the records?
64 µg/mL

Which value of MIC90 has been reported for CSc1ccc(C2NC(c3ccc(SC)cc3)C3C(=NO)C2C(c2ccc(SC)cc2)NC3c2ccc(SC)cc2)cc1 (configuration not stated) in the records?
32 µg/mL

Which value of MIC90 has been reported for CON=C1C2C(c3ccc(OC)cc3)NC(c3ccc(OC)cc3)C1C(c1ccc(OC)cc1)NC2c1ccc(OC)cc1 (configuration not stated) in the records?
128 µg/mL

Which value of MIC90 has been reported for CON=C1C2C(c3cccc(OC)c3)NC(c3cccc(OC)c3)C1C(c1cccc(OC)c1)NC2c1cccc(OC)c1 (configuration not stated) in the records?
> 128 µg/mL

Which value of MIC90 has been reported for CON=C1C2C(c3cccc(Cl)c3)NC(c3cccc(Cl)c3)C1C(c1cccc(Cl)c1)NC2c1cccc(Cl)c1 (configuration not stated) in the records?
> 128 µg/mL

Which value of MIC90 has been reported for ON=C1C2C(c3cccc(Oc4ccccc4)c3)NC(c3cccc(Oc4ccccc4)c3)C1C(c1cccc(Oc3ccccc3)c1)NC2c1cccc(Oc2ccccc2)c1 (configuration not stated) in the records?
128 µg/mL

----------
// MIC90 lookup, one value per entry
# System: Aspergillus niger
# assayInfo: Antifungal activity against Aspergillus niger by broth microdilution method
# Type: functional
Supply the numeric figure in µg/mL, leaving out any unit text.

| compound | targetOrSystem | readoutType | measurement |
| --- | --- | --- | --- |
| ON=C1C2C(c3ccc(F)cc3)NC(c3ccc(F)cc3)C1C(c1ccc(F)cc1)NC2c1ccc(F)cc1 (stereo not drawn) | Aspergillus niger | MIC90 | 4 |
| ON=C1C2C(c3cccc(Cl)c3)NC(c3cccc(Cl)c3)C1C(c1cccc(Cl)c1)NC2c1cccc(Cl)c1 (stereo not drawn) | Aspergillus niger | MIC90 | 64 |
| CON=C1C2C(c3ccccc3F)NC(c3ccccc3F)C1C(c1ccccc1F)NC2c1ccccc1F (stereo not drawn) | Aspergillus niger | MIC90 | 4 |
| ON=C1C2C(c3ccccc3F)NC(c3ccccc3F)C1C(c1ccccc1F)NC2c1ccccc1F (stereo not drawn) | Aspergillus niger | MIC90 | 4 |
| CCOc1ccc(C2NC(c3ccc(OCC)cc3)C3C(=NO)C2C(c2ccc(OCC)cc2)NC3c2ccc(OCC)cc2)cc1 (stereo not drawn) | Aspergillus niger | MIC90 | 16 |
| CON=C1C2C(c3cccc(OC)c3)NC(c3cccc(OC)c3)C1C(c1cccc(OC)c1)NC2c1cccc(OC)c1 (stereo not drawn) | Aspergillus niger | MIC90 | 16 |

Which value of MIC90 has been reported for CCOc1ccccc1C1NC(c2ccccc2OCC)C2C(=NO)C1C(c1ccccc1OCC)NC2c1ccccc1OCC (stereo not drawn) in the records?
32

Which value of MIC90 has been reported for CON=C1C2C(c3ccc(C(C)C)cc3)NC(c3ccc(C(C)C)cc3)C1C(c1ccc(C(C)C)cc1)NC2c1ccc(C(C)C)cc1 (stereo not drawn) in the records?
128
